Exercise: for every item that follows, state its recorded pKd.
# Tested On: T1, MBP-fused PDZ domain of SNTB1 (human, UniProt Q13884 112-195)
# T1 sequence (looked up): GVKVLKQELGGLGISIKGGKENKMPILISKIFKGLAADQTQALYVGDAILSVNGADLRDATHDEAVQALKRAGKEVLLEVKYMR
# Assay: fluorescence polarisation
Where no end group is shown, it is not given here.
Note on units: pKd is unitless, being -log10 of a concentration expressed in mol/L.

q: Give its pKd value. Item: KLPSTTL (peptide, UniProt Q15418 729-735, looked up, also: fluorescein labeled, site not given here) [fluorescein labeled RSK1 729-735 peptide, unphosphorylated]
a: 4.74

q: Given the binder KLPSTTL (peptide, UniProt Q15418 729-735, looked up, phosphorylated; fluorescein labeled) [fluorescein labeled RSK1 729-735 peptide, phosphorylated] , what is its reported pKd?
a: 5.82
